Molecular target: Kv1.5 channels from humans (Homo sapiens, UniProt P22460)
Construct: expressed in transfected cells; host or cells: Xenopus laevis oocytes injected with in vitro synthesized RNA
Sequence (P22460 whole entry): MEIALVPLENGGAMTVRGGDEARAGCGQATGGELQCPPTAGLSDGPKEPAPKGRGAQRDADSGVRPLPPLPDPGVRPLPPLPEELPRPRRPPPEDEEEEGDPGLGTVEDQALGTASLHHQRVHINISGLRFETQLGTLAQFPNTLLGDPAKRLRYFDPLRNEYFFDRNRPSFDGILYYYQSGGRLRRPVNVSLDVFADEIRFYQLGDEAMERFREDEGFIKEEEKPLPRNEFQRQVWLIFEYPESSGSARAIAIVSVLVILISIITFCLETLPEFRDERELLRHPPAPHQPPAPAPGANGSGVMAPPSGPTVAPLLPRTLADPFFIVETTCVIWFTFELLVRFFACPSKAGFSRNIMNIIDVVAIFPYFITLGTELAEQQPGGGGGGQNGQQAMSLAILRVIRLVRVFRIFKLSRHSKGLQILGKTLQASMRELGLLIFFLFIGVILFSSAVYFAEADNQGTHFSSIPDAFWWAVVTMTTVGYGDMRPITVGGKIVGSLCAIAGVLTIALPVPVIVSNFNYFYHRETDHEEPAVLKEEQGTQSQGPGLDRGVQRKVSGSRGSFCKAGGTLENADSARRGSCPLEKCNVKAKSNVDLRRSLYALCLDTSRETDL
Assay: Kv1.5 currents in Xenopus oocytes, two-microelectrode voltage clamp
Format: cell-based
Details: human Kv1.5 expressed in Xenopus laevis oocytes; voltage jumps to 0 mV and 40 mV, 500 ms; room temperature; inhibition of Kv1.5 control current, Hill equation
reportedProperty: IC50 (nM)

compound	unit	IC50
O=C(NCc1ccccc1-c1ccccc1C(=O)NCCc1ccccn1)Nc1ccc(Cl)cc1 [11 l]	nM	2700
O=C(NCc1ccccn1)c1ccccc1-c1ccccc1CNC(=S)NCCc1ccccc1 [9 g]	nM	2200

(I) COc1ccc(NC(=O)NCc2ccccc2-c2ccccc2C(=O)NCCc2ccccn2)cc1 [11 a]
(II) O=C(NCc1ccccc1-c1ccccc1C(=O)NCc1ccccn1)Nc1ccc(C(F)(F)F)cc1 [11 d]
(III) COc1cc(CNC(=O)c2ccccc2-c2ccccc2CNC(=O)Nc2ccc(F)cc2F)cc(OC)c1OC [11 h]
Place the items in sequence of falling IC50. Reply with the item labels sorted in the order that was asked for.
III, II, I
(III: 5800 nM, II: 3300 nM, I: 2300 nM)

* * *

Molecular target: Kv1.5 channels from humans (Homo sapiens, UniProt P22460)
Construct: expressed in transfected cells; host or cells: Xenopus laevis oocytes injected with in vitro synthesized RNA
Experiment: Kv1.5 currents in Xenopus oocytes, two-microelectrode voltage clamp
Format: cell-based
reportedProperty: IC50 (nM)

(1) CC(C)CCNC(=O)c1ccccc1-c1ccccc1[C@H](C)NC(=O)OCc1ccccc1
(2) C[C@@H](OC(=O)NCc1ccccc1-c1ccccc1C(=O)NCCc1ccccn1)c1ccc(C(F)(F)F)cc1
(3) C[C@H](CC(=O)NCc1ccccc1-c1ccccc1C(=O)NCCc1cccnc1)c1ccccc1
Hello, I need these entries ordered by IC50, highest reading first. Thanks! Reply with the item labels sorted in the order that was asked for.
2, 1, 3

(P) O=C(NCc1ccccc1-c1ccccc1C(=O)NCCCC(F)(F)F)OCc1ccccc1
(Q) C[C@H](CC(=O)NCc1ccccc1-c1ccccc1C(=O)NCC1CC1)c1ccccc1
(R) CC(C)CCC(=O)NCc1ccccc1-c1ccccc1C(=O)NCc1ccc(F)cc1F
(S) CN(CCc1ccccn1)C(=O)c1ccccc1-c1ccccc1CNC(=O)OCc1ccccc1
Place the items in sequence of falling IC50. Reply with the item labels sorted in the order that was asked for.
S, R, P, Q

* * *

Biological target: Kv1.5 channels from humans (Homo sapiens, UniProt P22460)
Construct: expressed in transfected cells; host or cells: Xenopus laevis oocytes injected with in vitro synthesized RNA
Assay: Kv1.5 currents in Xenopus oocytes, two-microelectrode voltage clamp
Assay type: cell-based
pIC50: −log10 of the molar value.
reportedProperty: pIC50

Reference set (5 entries):
molecule	pIC50
CCCC(C)OC(=O)NCc1ccccc1-c1ccccc1C(=O)NCC1CC1 (stereo not shown) [18 m]	5.68
CC(C)CCNC(=O)c1ccccc1-c1ccccc1[C@@H](C)NC(=O)OCc1ccccc1 [17 c]	5.68
COc1ccc(C(=O)NCc2ccccc2-c2ccccc2C(=O)N[C@@H](CC(C)C)C(=O)NCC(F)(F)F)cc1 [13 f]	5.47
CCOc1ccc(CCC(=O)NCc2ccccc2-c2ccccc2C(=O)NCCc2ccccn2)cc1 [4 k]	5.66
CC(OC(=O)NCc1ccccc1-c1ccccc1C(=O)NCCc1ccccn1)c1ccccc1C(F)(F)F (stereo not shown) [1 l]	5.85

(a) CC(C)C[C@@H](NC(=O)c1ccccc1-c1ccccc1CNC(=O)OCc1ccccc1)C(N)=O [8 ac]
(b) CN(C)c1ccc(CNC(=O)c2ccccc2-c2ccccc2CNC(=O)OCc2ccccc2)cc1 [18 ai]
(c) O=C(NCCc1ccccn1)c1ccccc1-c1ccccc1CNS(=O)(=O)c1ccccc1 [3 p]
(d) CCCCN(CCCC)C(=O)c1ccccc1-c1ccccc1CNC(=O)OCc1ccccc1 [6 e]
(e) O=C(NCc1ccccc1-c1ccccc1C(=O)NCCc1ccccn1)OCc1ccc(F)cc1 [1 e]
Sort ascending by pIC50. Reply with the item labels sorted in the order that was asked for.
b, d, c, a, e

(1) CC(C)CCNC(=O)[C@H](CC(C)C)NC(=O)c1ccccc1-c1ccccc1CNC(=O)OCc1ccccc1 [13 e]
(2) CC(C)C(NC(=O)c1ccccc1-c1ccccc1CNC(=O)OCc1ccccc1)C(N)=O (stereo not shown) [8 p]
(3) CC(C)CCC(=O)NCc1ccccc1-c1ccccc1C(=O)NCC1CC1 [18 a]
(4) CC(OC(=O)NCc1ccccc1-c1ccccc1C(=O)NCCc1ccccn1)c1cccc(C(F)(F)F)c1 (stereo not shown) [1 m]
Place the items in sequence of falling pIC50. Reply with the item labels sorted in the order that was asked for.
4, 2, 1, 3
(4: 6.15, 2: 5.85, 1: 5.55, 3: 5.14)

(1) O=C(NCc1ccccc1-c1ccccc1C(=O)NCCc1ccccc1)OCc1ccc(C(F)(F)F)cc1 [1 a]
(2) COc1ccc(CC(=O)NCc2ccccc2-c2ccccc2C(=O)NC(C)CC(C)C)cc1 (stereo not shown) [18 ab]
Please compare: 1 and 2 . Report which one has the smaller pIC50 value. Pick one; state its label.
1

Reference source: patent US7514582B2
